- experimental target: Leukotriene B4 receptor 1 (Homo sapiens)
- Sequence (Q15722 whole entry): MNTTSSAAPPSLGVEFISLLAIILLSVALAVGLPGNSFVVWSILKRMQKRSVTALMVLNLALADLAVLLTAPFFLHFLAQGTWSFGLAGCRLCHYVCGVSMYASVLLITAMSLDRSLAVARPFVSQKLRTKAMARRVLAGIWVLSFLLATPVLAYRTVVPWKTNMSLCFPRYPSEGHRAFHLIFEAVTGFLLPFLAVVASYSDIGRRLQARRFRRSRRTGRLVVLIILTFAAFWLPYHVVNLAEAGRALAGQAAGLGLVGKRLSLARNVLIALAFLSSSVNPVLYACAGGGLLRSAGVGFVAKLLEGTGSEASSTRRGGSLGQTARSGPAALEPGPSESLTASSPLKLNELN
- experiment: Compound tested for binding affinity against Leukotriene B4 receptor using radioligand binding assay from Human PMN cells
- Format: cell-based
experimental endpoint: IC50 (nM)
# number only, unit nM dropped from output

Query :: Please look up its IC50: CN(CCc1ccccc1)C(=O)Cc1ccc(OCc2ccccc2)cc1
Result :: 900

----------
Can you tell me IC50 for the items I'm about to list?
- experimental target: Leukotriene B4 receptor (Cavia porcellus)
- experiment: Binding affinity for Leukotriene B4 receptor of guinea pig spleen membranes
# number only, unit nM dropped from output

Query :: Please look up its IC50: CN(CCc1ccccc1)C(=O)Cc1ccc(-c2ccccc2)c(C(=O)O)c1
Result :: 27

Query :: Please look up its IC50: CN(CCc1ccccc1)C(=O)Cc1cc(OCc2ccccc2)ccc1C(=O)O
Result :: 250

Query :: Please look up its IC50: CN(CCc1ccccc1)C(=O)Cc1ccc(-c2ccccc2)c(/C=C/C(=O)O)c1
Result :: 44.6

Query :: Please look up its IC50: CN(CCc1ccccc1)C(=O)Cc1ccc(OCc2ccccc2)cc1
Result :: 65.6

Query :: Please look up its IC50: C/C(=C\c1cc(CC(=O)N(C)CCc2ccccc2)ccc1-c1ccccc1)C(=O)O
Result :: 65

Query :: Please look up its IC50: CN(CCc1ccccc1)C(=O)Cc1cc(CC(=O)O)cc(OCc2ccccc2)c1
Result :: 200

Query :: Please look up its IC50: CN(CCc1ccccc1)C(=O)Cc1cc(OCC(=O)O)cc(OCc2ccccc2)c1
Result :: 53.3

Query :: Please look up its IC50: C/C(=C\C(=O)O)c1cc(CC(=O)N(C)CCc2ccccc2)cc(OCc2ccccc2)c1
Result :: 143

Query :: Please look up its IC50: CN(CCc1ccccc1)C(=O)Cc1cccc(OCc2ccccc2)c1
Result :: 225

Query :: Please look up its IC50: CN(CCc1ccccc1)C(=O)Cc1cc(CC(=O)O)cc(OC/C=C/c2ccccc2)c1
Result :: 1200

Query :: Please look up its IC50: CN(CCc1ccccc1)C(=O)Cc1ccc(OCc2ccccc2)c(/C=C/C(=O)O)c1
Result :: 2.27
